The measured values listed here are drawn from ChEMBL document CHEMBL6083237.

target: Transcription factor p65 (Homo sapiens)
Sequence (Q04206 whole entry): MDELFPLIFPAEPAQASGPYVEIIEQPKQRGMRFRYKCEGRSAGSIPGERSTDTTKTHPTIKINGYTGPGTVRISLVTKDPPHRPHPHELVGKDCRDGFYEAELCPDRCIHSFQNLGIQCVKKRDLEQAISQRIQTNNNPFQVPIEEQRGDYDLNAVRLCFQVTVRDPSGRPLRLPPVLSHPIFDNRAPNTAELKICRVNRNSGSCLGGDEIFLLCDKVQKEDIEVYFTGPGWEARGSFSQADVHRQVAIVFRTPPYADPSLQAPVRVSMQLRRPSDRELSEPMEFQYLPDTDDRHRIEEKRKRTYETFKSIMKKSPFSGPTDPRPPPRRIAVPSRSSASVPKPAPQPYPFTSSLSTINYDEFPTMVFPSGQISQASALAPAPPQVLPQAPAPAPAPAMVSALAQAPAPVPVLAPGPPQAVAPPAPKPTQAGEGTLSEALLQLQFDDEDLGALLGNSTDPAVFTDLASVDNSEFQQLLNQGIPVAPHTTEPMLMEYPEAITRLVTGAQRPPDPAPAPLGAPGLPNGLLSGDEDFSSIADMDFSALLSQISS
protocol text: Displacement of biotin-labeled p65 binding oligonucleotides from p65 (unknown origin) overexpressed in HEK293T cell nuclear extract incubated for 2 hrs by electrophoretic mobility shift assay
pIC50: −log10 of the molar value.
parameter measured: pIC50

Lookup: Item under review: "C=C1C(=O)[C@]23C[C@H]1C[C@H](OC(C)=O)[C@H]2[C@]1(C)[C@@H](OC(C)=O)C[C@H](O)C(C)(C)[C@H]1C(=O)[C@@H]3OC(C)=O" . Reported pIC50?
Found: ~4.40
